Attribute: shrunken log2 fold change
Tested on: Escherichia coli TOP10
Assay: shrunken log2 fold change of peptide-encoding DNA abundance (4.5 h post-induction vs induction); higher = less antimicrobial activity (less host growth inhibition)
Conditions: time post-induction: 4.5 h; library: site-saturation at positions 5, 18, 19, 20

# example entries with known answers
In [3]: df
Out[3]:
    macromolecule_sequence           tested_target  observed_value
0  RRIRARPPRLPRPRPRPGCQPRP  Escherichia coli TOP10           0.168
1  RRIRFRPPRLPRPRPRPESQPRP  Escherichia coli TOP10         -0.0723

IN: Lab note: need shrunken log2 fold change with Escherichia coli TOP10 for entry "RRIRQRPPRLPRPRPRPRNFPRP" , please look it up.
OUT: -0.0725

IN: Record: "RRIRPRPPRLPRPRPRPEQLPRP"
OUT: 0.0838

IN: Continue with "RRIRQRPPRLPRPRPRPHVFPRP"
OUT: -0.000919

IN: Follow-up item: "RRIRERPPRLPRPRPRPPNNPRP"
OUT: -0.186

IN: Param item: "RRIRQRPPRLPRPRPRPGNKPRP"
OUT: -0.596

IN: Can you handle "RRIRFRPPRLPRPRPRPMVHPRP" next?
OUT: -0.468

###

Test system: Escherichia coli TOP10
Assay: shrunken log2 fold change of peptide-encoding DNA abundance (4.5 h post-induction vs induction); higher = less antimicrobial activity (less host growth inhibition)
Details: time post-induction: 4.5 h; library: site-saturation at positions 5, 18, 19, 20
Below, each of the sequences is paired with its reported shrunken log2 fold change value.
Just the number, please, no unit after it.

See these solved cases before continuing.
>>> print(df.to_string())
    macromolecule_sequence  observed_value
0  RRIRRRPPRLPRPRPRPMHEPRP           0.213
1  RRIRWRPPRLPRPRPRPDGVPRP            -0.1
2  RRIRYRPPRLPRPRPRPGCAPRP          -0.139
3  RRIRGRPPRLPRPRPRPLVKPRP           0.546
4  RRIRRRPPRLPRPRPRPFVIPRP         -0.0863
5  RRIRNRPPRLPRPRPRPKFLPRP          0.0309
6  RRIRERPPRLPRPRPRPPFLPRP          -0.075
7  RRIRGRPPRLPRPRPRPADLPRP           0.604

IN: Given the entry "RRIRLRPPRLPRPRPRPNLTPRP" , report its measured shrunken log2 fold change.
OUT: -0.299

IN: Moving on to the next sequence: "RRIRPRPPRLPRPRPRPHDVPRP"
OUT: -0.242

IN: Would you kindly repeat that for "RRIRSRPPRLPRPRPRPCKPPRP" ?
OUT: -0.173

IN: // next record "RRIRTRPPRLPRPRPRPAPRPRP"
OUT: 1.39

IN: Record: "RRIRGRPPRLPRPRPRPHETPRP"
OUT: -0.022

IN: And the next one, "RRIRLRPPRLPRPRPRPSKVPRP" ?
OUT: -0.117

IN: Also "RRIRYRPPRLPRPRPRPGVAPRP" , if possible.
OUT: 0.182

IN: Same again, this time with "RRIRTRPPRLPRPRPRPMRIPRP"
OUT: -0.0254

IN: Now the sequence "RRIRRRPPRLPRPRPRPKPHPRP"
OUT: 0.536

IN: Request: "RRIRIRPPRLPRPRPRPDCIPRP"
OUT: 0.0653

IN: Moving on to "RRIRQRPPRLPRPRPRPSKVPRP"
OUT: -0.133

IN: Could you do the same for "RRIRSRPPRLPRPRPRPHLFPRP" , please?
OUT: -0.32

IN: Entry to check: "RRIRARPPRLPRPRPRPWLYPRP"
OUT: -0.0506

IN: Repeat with "RRIRDRPPRLPRPRPRPEEPPRP"
OUT: 2.06

IN: Further, for "RRIRDRPPRLPRPRPRPHMWPRP" ?
OUT: 0.0299

IN: One more sequence: "RRIRFRPPRLPRPRPRPWMIPRP"
OUT: -0.00776

IN: Try this sequence next: "RRIRFRPPRLPRPRPRPWFIPRP"
OUT: -0.175

IN: Next sequence: "RRIRKRPPRLPRPRPRPKLAPRP"
OUT: 1.58

IN: Thanks! And "RRIRRRPPRLPRPRPRPWGNPRP" ?
OUT: 0.352

IN: Do the same for "RRIRMRPPRLPRPRPRPNTSPRP" please
OUT: -0.0142

IN: Now give it for "RRIRARPPRLPRPRPRPCCRPRP" too.
OUT: 0.406

IN: Param item: "RRIRGRPPRLPRPRPRPYSVPRP"
OUT: 0.0284

IN: What would you report for "RRIRRRPPRLPRPRPRPKFAPRP" ?
OUT: 0.283

IN: Another sequence to check: "RRIRVRPPRLPRPRPRPCQPPRP"
OUT: -0.236

###

Test system: Escherichia coli TOP10
Assay: shrunken log2 fold change of peptide-encoding DNA abundance (4.5 h post-induction vs induction); higher = less antimicrobial activity (less host growth inhibition)
Settings: time post-induction: 4.5 h; library: site-saturation at positions 5, 18, 19, 20
Label yes for high-side shrunken log2 fold change (at or above -0.2) and no for low-side shrunken log2 fold change (below it).

Example entries and their recorded answers appear below.
>>> df
    macromolecule_sequence  class_label
0  RRIRLRPPRLPRPRPRPFPMPRP           no
1  RRIRGRPPRLPRPRPRPSFHPRP          yes
2  RRIRMRPPRLPRPRPRPFRDPRP          yes
3  RRIRQRPPRLPRPRPRPVKMPRP           no

IN: Entry "RRIRFRPPRLPRPRPRPTDFPRP" : is its shrunken log2 fold change no less than -0.2?
OUT: no

IN: // same read-out, input: "RRIRWRPPRLPRPRPRPLFVPRP"
OUT: yes

IN: Continue with "RRIRMRPPRLPRPRPRPVDGPRP"
OUT: yes

IN: Likewise for "RRIRQRPPRLPRPRPRPGMVPRP" ?
OUT: yes

###

Tested on: Escherichia coli TOP10
Experiment: shrunken log2 fold change of peptide-encoding DNA abundance (4.5 h post-induction vs induction); higher = less antimicrobial activity (less host growth inhibition)
Conditions: time post-induction: 4.5 h; library: site-saturation at positions 5, 18, 19, 20
MEASURE: shrunken log2 fold change
The response must contain the number and no unit.

Please review the entries below; each comes with its answer.
>>> print(df.to_string())
    macromolecule_sequence                    measure  observed_value
0  RRIRRRPPRLPRPRPRPTGIPRP  shrunken log2 fold change           0.872
1  RRIRFRPPRLPRPRPRPRHMPRP  shrunken log2 fold change          -0.124
2  RRIRIRPPRLPRPRPRPIPAPRP  shrunken log2 fold change         -0.0353
3  RRIRWRPPRLPRPRPRPDITPRP  shrunken log2 fold change           0.179
4  RRIRIRPPRLPRPRPRPPPGPRP  shrunken log2 fold change           0.685

IN: Field request: shrunken log2 fold change | item: "RRIRQRPPRLPRPRPRPDKRPRP"
OUT: 0.00102

IN: Another: "RRIRLRPPRLPRPRPRPFQIPRP"
OUT: -0.109

IN: Try the sequence "RRIRPRPPRLPRPRPRPRTFPRP"
OUT: 0.23

IN: What would you report for "RRIRMRPPRLPRPRPRPIKTPRP" ?
OUT: -0.0802

###

Test system: Escherichia coli TOP10;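 note: peptides expressed intracellularly from a pBAD plasmid library in pooled LB shake-flask culture, induced with 0.3% L-arabinose, DNA abundance read by NGS, three biological replicates, DESeq2 with apeglm shrinkage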
Experiment: shrunken log2 fold change of peptide-encoding DNA abundance (4.5 h post-induction vs induction); higher = less antimicrobial activity (less host growth inhibition)
Details: time post-induction: 4.5 h; library: site-saturation at positions 5, 18, 19, 20
Ranges used to classify shrunken log2 fold change: low (below -0.06), intermediate (-0.06 to below 0.2), high (0.2 or more)

Reference set (6 entries):
    macromolecule_sequence   class_label
0  RRIRCRPPRLPRPRPRPCKHPRP           low
1  RRIRPRPPRLPRPRPRPVYFPRP           low
2  RRIRSRPPRLPRPRPRPTEHPRP  intermediate
3  RRIRCRPPRLPRPRPRPEKCPRP          high
4  RRIRMRPPRLPRPRPRPEEDPRP  intermediate
5  RRIRHRPPRLPRPRPRPISPPRP           low

IN: Category of "RRIRVRPPRLPRPRPRPAMTPRP" :
OUT: intermediate

IN: Now consider "RRIRRRPPRLPRPRPRPRGCPRP" and answer again.
OUT: high
